Ref: patent US20250361298A1

# target entity: T1, Human LY6G6D ectodomain fused to mouse IgG2A Fc (monovalent display, knob-in-hole) (human, biotinylated for BLI capture (site not stated))
# T1 chain: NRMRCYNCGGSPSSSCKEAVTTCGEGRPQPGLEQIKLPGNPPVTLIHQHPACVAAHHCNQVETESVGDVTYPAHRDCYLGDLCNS
# experiment description: BLI, chain shuffle round 1; antigen not named in the table (LY6G6D ectodomain as in Example 3)
Quick reference for koff among some binders
Please answer using a numeric value trailed by its unit.

As a guide, the following entries are already answered.
CP1479 (heavy chain from CB21-513, light chain from CB21-469) (antibody, V domains shown, Chain-shuffled antibody) VH: EVQLVDSGGGLVEPGGSLRLSCAASGFTFSSYAMTWVRQAPGKGLEWVSGISGSGGVTDYADSVKGRFTISRDNSKNTLYMQMNSLRAEDTAVYYCAKDLGVWGKGTTVTVSS VL: DVVMTQTPLSSPVTLGQSASISCRSSQSLVHSDGNTYLNWLHQRPGQPPRLLIYKISNRFSGVPDRFSGSGAGTDFTLKISRVEAEDVGVYYCMQATQFPLTFGGGTKLEIK : 0.00053 s⁻¹
CP1481 (heavy chain from CB21-513, light chain from CB21-500) (antibody, V domains shown, Chain-shuffled antibody) VH: EVQLVDSGGGLVEPGGSLRLSCAASGFTFSSYAMTWVRQAPGKGLEWVSGISGSGGVTDYADSVKGRFTISRDNSKNTLYMQMNSLRAEDTAVYYCAKDLGVWGKGTTVTVSS VL: DVVMTQTPLSSPVTLGQPASISCRSSQNLVHSDGNTYLNWLQQRPGQPPRLLIYKISNRFSGVPDRFSGSGAGTDFTLKISRVEAEDVGVYYCMQATQFPLTFGGGTKLEIK : 0.000264 s⁻¹
CP1473 (heavy chain from CB21-498, light chain from CB21-469) (antibody, V domains shown, Chain-shuffled antibody) VH: EMQLVESGGGLVQPGGSLRLSCAASGFTFSSYAMNWVRQAPGKGLECVSGISGNGGRIYYAESVKGRFTISRDNSKSTFYLQMNSLRAEDTAVYYCAKDLDVWGKGTTVTVSS VL: DVVMTQTPLSSPVTLGQSASISCRSSQSLVHSDGNTYLNWLHQRPGQPPRLLIYKISNRFSGVPDRFSGSGAGTDFTLKISRVEAEDVGVYYCMQATQFPLTFGGGTKLEIK : 8.4e-05 s⁻¹

Now look at this entry.
input: Look up and report measured koff for this entry: CP1474 (heavy chain from CB21-498, light chain from CB21-500) (antibody, V domains shown, Chain-shuffled antibody) VH: EMQLVESGGGLVQPGGSLRLSCAASGFTFSSYAMNWVRQAPGKGLECVSGISGNGGRIYYAESVKGRFTISRDNSKSTFYLQMNSLRAEDTAVYYCAKDLDVWGKGTTVTVSS VL: DVVMTQTPLSSPVTLGQPASISCRSSQNLVHSDGNTYLNWLQQRPGQPPRLLIYKISNRFSGVPDRFSGSGAGTDFTLKISRVEAEDVGVYYCMQATQFPLTFGGGTKLEIK
output: 9.87e-05 s⁻¹
